I'd appreciate it if you could supply protein stability index values for the items below.
B1: DVL3 (parent)
chain: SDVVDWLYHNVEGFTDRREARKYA

- Variants of: B1
- procedure text: protein stability index of a GFP-peptide fusion (GPS, HEK-293T) (PSI 1-6); higher = more stable;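 also: lentivirally expressed fusions sorted by FACS into six bins by GFP to DsRed ratio, PSI derived from sequencing read proportions per bin multiplied by bin number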
- details: c terminus: a fixed tail appended
Answers are plain numbers.

# example entries with known answers
{"mutation annotation": "E19H", "protein stability index": 2.58}
{"mutation annotation": "V4H", "protein stability index": 3.52}
{"mutation annotation": "R17T", "protein stability index": 3.09}

Dear colleague, could you please provide protein stability index for the variants listed below?
1. E12D
2. E12P
3. S1R
4. G13A
5. A24F

# output
[2.96, 2.33, 2.52, 2.71, 2.82]

Go through the items and report each one's protein stability index.
1. V3Q
2. D5M
3. Y23A
4. L7E
5. K22V
6. R17E
7. S1P

# output
1: 4.64; 2: 2.87; 3: 4.21; 4: 5.12; 5: 2.36; 6: 3.82; 7: 2.15

// for each variant below, give its protein stability index
1. A24L
2. D16E
3. V3L
4. R21K
5. L7D

# output
1. 2.66
2. 3
3. 3.15
4. 3.24
5. 4.58
